Reported pIC50 values for a set of compounds
- Tested On: Gastric inhibitory polypeptide receptor (Homo sapiens, UniProt P48546)
- Sequence (P48546 whole entry): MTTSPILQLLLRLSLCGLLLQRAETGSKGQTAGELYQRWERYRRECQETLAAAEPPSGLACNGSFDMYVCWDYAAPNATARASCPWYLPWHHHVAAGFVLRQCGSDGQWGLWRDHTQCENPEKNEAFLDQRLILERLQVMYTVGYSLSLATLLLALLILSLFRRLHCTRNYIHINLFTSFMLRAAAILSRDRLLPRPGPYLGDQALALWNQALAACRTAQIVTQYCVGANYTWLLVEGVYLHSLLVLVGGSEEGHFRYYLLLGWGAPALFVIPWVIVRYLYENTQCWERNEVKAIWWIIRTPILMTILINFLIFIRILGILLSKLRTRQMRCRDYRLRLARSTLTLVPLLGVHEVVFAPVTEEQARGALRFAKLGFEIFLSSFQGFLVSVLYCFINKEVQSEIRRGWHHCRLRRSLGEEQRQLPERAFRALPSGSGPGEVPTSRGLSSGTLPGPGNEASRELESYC
- Protocol Text: Displacement of [125I]porcine GIP from human recombinant GIPR receptor expressed in BHK cells by scintillation proximity assay
- Format: cell-based
pIC50: −log10 of the molar value.

structure_smiles=O=C(NC[C@@H](O)C(=O)O)c1ccc(CN(c2ccc3c(c2)CCC3)c2nc(-c3ccc(C(F)(F)F)cc3)cs2)cc1 measured_parameter=pIC50 val="< 6.00"
structure_smiles=O=C(NC[C@@H](O)C(=O)O)c1ccc(CN(c2ccc3c(c2)CCC3)c2nc(-c3ccc(OC(F)(F)F)cc3)cs2)cc1 measured_parameter=pIC50 val="< 6.00"

Kindly consider the entry below.
Any idea what its pIC50 is? The compound is "COc1ccccc1-c1csc(N(Cc2ccc(C(=O)NCCC(=O)O)cc2)c2ccc(SC(F)(F)F)cc2)n1" < 6.00
